# System: RARg homodimer (NR concentration 270 nM)
# assay details: PBM binding z-score (relative to random genomic background probes); higher = stronger binding; sequences stand for … in GC…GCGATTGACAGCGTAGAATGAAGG
Entries annotated with measured PBM binding z-score
Kindly provide the number alone.

# annotated cases, reported PBM binding z-score shown
INSERT INTO measurements (residues, target_of_assay, quantitative_readout) VALUES
  ('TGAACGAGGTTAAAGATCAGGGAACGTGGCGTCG', 'RARg homodimer (NR concentration 270 nM)', 1.35),
  ('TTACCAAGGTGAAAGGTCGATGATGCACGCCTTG', 'RARg homodimer (NR concentration 270 nM)', 2.15),
  ('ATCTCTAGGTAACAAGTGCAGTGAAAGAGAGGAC', 'RARg homodimer (NR concentration 270 nM)', 0.624),
  ('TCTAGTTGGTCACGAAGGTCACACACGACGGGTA', 'RARg homodimer (NR concentration 270 nM)', 5.06),
  ('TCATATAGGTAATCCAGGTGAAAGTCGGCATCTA', 'RARg homodimer (NR concentration 270 nM)', 0.455);

Which PBM binding z-score is listed for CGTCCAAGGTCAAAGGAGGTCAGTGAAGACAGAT ? 7.08

Recorded PBM binding z-score of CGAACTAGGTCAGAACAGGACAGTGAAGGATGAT , please. 3.34

# PBM binding z-score lookup, item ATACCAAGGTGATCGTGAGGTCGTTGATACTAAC 1.03

What does the record list as PBM binding z-score for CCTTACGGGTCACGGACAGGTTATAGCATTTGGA ? 5.39

Fill blank: measured PBM binding z-score of the sequence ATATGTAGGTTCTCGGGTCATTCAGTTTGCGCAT is ____. 1.7

###

// PBM binding z-score lookup, one value per entry
# System: PPARg:RXRa 90nM:30nM, anti-RXR (NR concentration 90 nM, RXRa partner concentration 30 nM)
# assay details: PBM binding z-score (relative to random genomic background probes); higher = stronger binding; sequences stand for … in GC…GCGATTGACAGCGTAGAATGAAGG

Past entries and their recorded results:
INSERT INTO assay_data (residues, result) VALUES
  ('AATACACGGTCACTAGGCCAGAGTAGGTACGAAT', 1.15),
  ('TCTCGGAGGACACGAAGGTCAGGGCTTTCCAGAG', 1.9),
  ('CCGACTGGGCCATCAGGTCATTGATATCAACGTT', 1.85),
  ('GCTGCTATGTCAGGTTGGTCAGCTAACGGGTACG', -0.312),
  ('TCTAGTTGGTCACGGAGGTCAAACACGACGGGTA', 4.08),
  ('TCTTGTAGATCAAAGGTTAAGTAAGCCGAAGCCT', 8.69),
  ('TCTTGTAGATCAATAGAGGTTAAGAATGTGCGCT', 1.97);

Switching to the query record.
Look up PBM binding z-score with PPARg:RXRa 90nM:30nM, anti-RXR (NR concentration 90 nM, RXRa partner concentration 30 nM) for this sequence: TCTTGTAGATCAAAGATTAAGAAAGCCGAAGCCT 3.75

###

# Test system: RARa homodimer (NR concentration 270 nM)
# assay details: PBM binding z-score (relative to random genomic background probes); higher = stronger binding; sequences stand for … in GC…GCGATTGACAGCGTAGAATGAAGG
reported endpoint: PBM binding z-score
Give only the figure.

Previously resolved entries follow.
INSERT INTO assay_data (residues, target_of_assay, reported_endpoint, quantitative_readout) VALUES
  ('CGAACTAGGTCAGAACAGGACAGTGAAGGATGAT', 'RARa homodimer (NR concentration 270 nM)', 'PBM binding z-score', 0.693),
  ('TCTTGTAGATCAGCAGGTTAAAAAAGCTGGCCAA', 'RARa homodimer (NR concentration 270 nM)', 'PBM binding z-score', -0.11),
  ('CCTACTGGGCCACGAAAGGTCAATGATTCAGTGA', 'RARa homodimer (NR concentration 270 nM)', 'PBM binding z-score', 0.747),
  ('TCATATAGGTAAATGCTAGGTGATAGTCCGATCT', 'RARa homodimer (NR concentration 270 nM)', 'PBM binding z-score', 1.3),
  ('TCAGACAGGTGAAGGTAACCCAGGTACGCAGTCG', 'RARa homodimer (NR concentration 270 nM)', 'PBM binding z-score', 0.035);

Moving on to another sequence below.
What does the data say about its PBM binding z-score? Entry: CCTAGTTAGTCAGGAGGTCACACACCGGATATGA 2.45

###

# Tested on: RXRa DBDmut IVT, anti-RXR (DBD mutation: RXRa K156A/R161A, NR concentration 90 nM)
# assay details: PBM binding z-score (relative to random genomic background probes); higher = stronger binding; sequences stand for … in GC…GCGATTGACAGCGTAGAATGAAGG
reported endpoint: PBM binding z-score
Returns: the value as a bare number; no unit string appended.

Guide cases for PBM binding z-score, answers given:
INSERT INTO assay_data (residues, target_of_assay, quantitative_readout) VALUES
  ('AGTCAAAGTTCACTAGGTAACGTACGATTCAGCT', 'RXRa DBDmut IVT, anti-RXR (DBD mutation: RXRa K156A/R161A, NR concentration 90 nM)', 4.41),
  ('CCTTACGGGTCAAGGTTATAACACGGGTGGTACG', 'RXRa DBDmut IVT, anti-RXR (DBD mutation: RXRa K156A/R161A, NR concentration 90 nM)', 1.1),
  ('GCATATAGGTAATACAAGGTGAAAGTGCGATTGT', 'RXRa DBDmut IVT, anti-RXR (DBD mutation: RXRa K156A/R161A, NR concentration 90 nM)', 0.39),
  ('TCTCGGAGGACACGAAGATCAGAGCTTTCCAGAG', 'RXRa DBDmut IVT, anti-RXR (DBD mutation: RXRa K156A/R161A, NR concentration 90 nM)', 0.0261),
  ('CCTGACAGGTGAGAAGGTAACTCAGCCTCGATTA', 'RXRa DBDmut IVT, anti-RXR (DBD mutation: RXRa K156A/R161A, NR concentration 90 nM)', -0.0911),
  ('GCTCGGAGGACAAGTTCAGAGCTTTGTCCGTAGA', 'RXRa DBDmut IVT, anti-RXR (DBD mutation: RXRa K156A/R161A, NR concentration 90 nM)', 1.73);

Would you kindly share the measured PBM binding z-score for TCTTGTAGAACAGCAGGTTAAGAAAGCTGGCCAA ? 0.506

###

# Tested on: PPARg:RXRa 90nM:30nM, anti-RXR (NR concentration 90 nM, RXRa partner concentration 30 nM)
# assay details: PBM binding z-score (relative to random genomic background probes); higher = stronger binding; sequences stand for … in GC…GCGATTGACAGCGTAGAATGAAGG
reported endpoint: PBM binding z-score
Hey, just send me the number, nothing else.

These recorded examples may help you get a feel for the data.
INSERT INTO results (residues, target_of_assay, reported_endpoint, quantitative_readout) VALUES
  ('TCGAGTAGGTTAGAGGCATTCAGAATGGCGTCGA', 'PPARg:RXRa 90nM:30nM, anti-RXR (NR concentration 90 nM, RXRa partner concentration 30 nM)', 'PBM binding z-score', 2.27),
  ('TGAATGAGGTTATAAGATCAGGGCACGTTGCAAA', 'PPARg:RXRa 90nM:30nM, anti-RXR (NR concentration 90 nM, RXRa partner concentration 30 nM)', 'PBM binding z-score', 1.63),
  ('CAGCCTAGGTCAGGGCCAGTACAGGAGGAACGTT', 'PPARg:RXRa 90nM:30nM, anti-RXR (NR concentration 90 nM, RXRa partner concentration 30 nM)', 'PBM binding z-score', 0.307),
  ('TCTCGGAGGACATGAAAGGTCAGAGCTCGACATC', 'PPARg:RXRa 90nM:30nM, anti-RXR (NR concentration 90 nM, RXRa partner concentration 30 nM)', 'PBM binding z-score', 2.61),
  ('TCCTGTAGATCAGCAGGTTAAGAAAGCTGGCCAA', 'PPARg:RXRa 90nM:30nM, anti-RXR (NR concentration 90 nM, RXRa partner concentration 30 nM)', 'PBM binding z-score', 1.83),
  ('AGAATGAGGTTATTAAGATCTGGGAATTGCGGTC', 'PPARg:RXRa 90nM:30nM, anti-RXR (NR concentration 90 nM, RXRa partner concentration 30 nM)', 'PBM binding z-score', 0.922);

# get_value(readout='PBM binding z-score', item= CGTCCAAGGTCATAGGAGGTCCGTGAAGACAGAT ) 3.67

I would be grateful if you could share the reported PBM binding z-score for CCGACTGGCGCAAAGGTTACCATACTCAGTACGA . 6.59

Find the recorded PBM binding z-score belonging to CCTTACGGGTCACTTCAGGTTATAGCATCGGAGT and report it. 2.2

Reference source: the supplement of paper PMC6555819
